Test system: U251 CNS
measurement.description: NCI tumour cell line growth inhibition, 48 h
Below: a set of entries, each annotated with reported TGI.

// solved cases for TGI follow
COc1nc(SC)nc2c1C(O)n1c(nc3ccccc31)S2 (stereo not given); 96.8 µM
COc1ccc(-c2nc3cc(F)ccc3s2)cc1O; > 100 µM
O=c1ccc2ccc(O)c3c4c(=O)ccc5ccc(O)c(c1c23)c54; 3.3 µM
COc1cccc(NC(=O)c2c(SC)c(C#N)c(=O)n(N)c2N)c1; > 100 µM
Cc1ccncc1N1CCN(c2ccnc(Cl)c2)C1=O; > 100 µM
COc1c(-c2ccccc2)oc2c(CP(=O)(OC)OC)cccc2c1=O; > 100 µM

// next item, TGI requested
Q: Param item = Nc1c(C(=O)Nc2ccccc2)sc2nc3c(cc12)C(O)CCC3 (stereo not given) ; retrieve measured TGI.
A: > 100 µM

Attribution: PubChem BioAssay (NCI)
